# Test system: MV4;11 cells
# procedure summary: Cell viability assay (CellTiter-Glo) in MV4;11 cells
# Assay type: cell-based
# assay setup: Homo sapiens, MV4-11, 72 h, MV4;11 cells, compound alone, three days; read-out: MV4; 11 IC50
# Description: Cell Culture: RS4;11, MV4;11, MOLM-13 and other cells were cultured at 37° C. with 5% CO2 in RPMI 1640 or DMEM Medium supplemented with 10% fetal bovine serum. Cells were authenticated using the short tandem repeat (STR) assays. Mycoplasma test results were negative. Cell viability assays: Cells were seeded at a density of 5000 cells per well in 96-well assay plates and treated with test compounds following a 8-point or 12-point 3-fold serial dilution. […]
Recorded IC50, one value per entry.

Some compounds with recorded IC50:
1. O=C1CCC(N2C(=O)c3ccc(NC[C@H]4C[C@H](n5cc(-c6cc7c(cn6)cnn7C6CC(O)C6)c(C6CC6)n5)C4)cc3C2=O)C(=O)N1 (stereo partly drawn) [GS-763] | 10 to 100 nM
2. Cc1cccc(-c2cn(C3CC4(CC(CNc5ccc6c(c5)C(=O)N(C5CCC(=O)NC5=O)C6=O)C4)C3)nc2C2CC2)n1 (stereo not drawn) [GS-775] | 100 to 1000 nM

API: the following record is the query input.
Record N[C@H]1C[C@@H](n2cc3cnc(-c4cn([C@H]5C[C@H](CNc6ccc7c(c6)C(=O)N(C6CCC(=O)NC6=O)C7=O)C5)nc4C4CC4)cc3n2)C1 (stereo partly drawn) [GS-785] , field IC50: < 10 nM

The reported numbers originate from patent US20250221988A1.
